TARGET_DESC: IBAT (Homo sapiens, UniProt Q12908)
Sequence (Q12908 whole entry): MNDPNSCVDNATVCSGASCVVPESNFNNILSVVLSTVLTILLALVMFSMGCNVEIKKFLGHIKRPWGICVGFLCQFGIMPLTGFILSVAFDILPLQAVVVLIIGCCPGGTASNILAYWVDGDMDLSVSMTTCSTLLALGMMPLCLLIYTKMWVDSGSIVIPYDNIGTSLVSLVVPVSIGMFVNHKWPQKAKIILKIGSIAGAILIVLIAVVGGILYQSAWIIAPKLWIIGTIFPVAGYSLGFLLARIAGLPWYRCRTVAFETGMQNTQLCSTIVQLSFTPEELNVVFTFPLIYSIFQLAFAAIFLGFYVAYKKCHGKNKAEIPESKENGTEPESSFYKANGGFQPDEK
TEST_METHOD_NOTES: Inhibition of radiolabeled taurocholate uptake in IBAT-transfected CHO cells
RUN_CONDITIONS: radiolabeled competition assay in transporter-expressing CHO cells
PROPERTY_LABEL: IC50 (µM)
Just the number please, in µM, no unit attached.

The compound identified as C[C@H](CCC(=O)N[C@@H](Cc1ccc2oc(=O)oc2c1)C(=O)O)[C@H]1CC[C@H]2[C@@H]3[C@H](O)C[C@@H]4C[C@H](O)CC[C@]4(C)[C@H]3C[C@H](O)[C@]12C [(23), Cholyl-Dopa-(3,4-carbonate)] registered its IC50 at 74

The compound identified as CC(CCC(=O)NC(Cc1ccccc1)C(=O)NCC1(CC(=O)O)CCCCC1)C1CCC2C3C(O)CC4CC(O)CCC4(C)C3CC(O)C12C (stereo not shown) [(7g), Cholyl-Phe-Gabapentin] registered its IC50 at 92

The compound identified as CC(CCC(=O)NCC1(CC(=O)O)CCCCC1)C1CCC2C3C(O)CC4CC(O)CCC4(C)C3CC(O)C12C (stereo not shown) [Compound (4)] registered its IC50 at 36

The compound identified as CC(CCC(=O)NC(Cc1ccc(O)c(O)c1)C(=O)O)C1CCC2C3C(O)CC4CC(O)CCC4(C)C3CC(O)C12C (stereo not shown) [(20), Cholyl-Dopa] registered its IC50 at 83

----------
TEST_METHOD_NOTES: in vivo
RUN_CONDITIONS: male, Sprague-Dawley, rat, po, 85.25 mg/kg
PROPERTY_LABEL: half-life

The compound identified as CC(CCC(=O)NCC1(CC(=O)O)CCCCC1)C1CCC2C3C(O)CC4CC(O)CCC4(C)C3CC(O)C12C (stereo not shown) registered its half-life at > 12 h

----------
TEST_METHOD_NOTES: Pharmacokinetics in rats following oral administration (Examples 38 and 40)
RUN_CONDITIONS: male, Sprague-Dawley, rat, in vivo, po, 25 mg/kg
Experimental: The pharmacokinetics of the prodrug (4) were examined in rats. […] Plasma samples were stored at −80° C. until analyzed. Concentrations of (4) or gabapentin in plasma samples were determined by LC/MS/MS as described in Example 35. […] The pharmacokinetics of the prodrug Cholyl-Phe-Gabapentin (7g) were examined in rats. […] Plasma samples were stored at −80° C. until analyzed. Concentrations of (7g) or (2) in plasma samples were determined by LC/MS/MS as described above. […]
PROPERTY_LABEL: Tmax (h)
Just the number please, in h, no unit attached.

The compound identified as Cl.NCC1(CC(=O)O)CCCCC1 [gabapentin, reference compound] registered its Tmax at 2.8

----------
TARGET_DESC: IBAT (Homo sapiens, UniProt Q12908)
TEST_METHOD_NOTES: Electrogenic transport in Xenopus oocytes expressing IBAT
Kindly state pEC50 for each of the entries shown.
Formally, pEC50 is defined as -log10 of the concentration c, with c in mol/L.

Field pEC50 (IBAT (Homo sapiens, UniProt Q12908)), entry CC(CCC(=O)NC(Cc1ccccc1)C(=O)NCC1(CC(=O)O)CCCCC1)C1CCC2C3C(O)CC4CC(O)CCC4(C)C3CC(O)C12C (centres unmarked) [(7g), Cholyl-Phe-Gabapentin] : 3.85

Field pEC50 (IBAT (Homo sapiens, UniProt Q12908)), entry CC(CCC(=O)NCC1(CC(=O)O)CCCCC1)C1CCC2C3C(O)CC4CC(O)CCC4(C)C3CC(O)C12C (centres unmarked) [Compound (4)] : 4.15

----------
TARGET_DESC: hPEPT1 (Homo sapiens, UniProt P46059)
Sequence (P46059 whole entry): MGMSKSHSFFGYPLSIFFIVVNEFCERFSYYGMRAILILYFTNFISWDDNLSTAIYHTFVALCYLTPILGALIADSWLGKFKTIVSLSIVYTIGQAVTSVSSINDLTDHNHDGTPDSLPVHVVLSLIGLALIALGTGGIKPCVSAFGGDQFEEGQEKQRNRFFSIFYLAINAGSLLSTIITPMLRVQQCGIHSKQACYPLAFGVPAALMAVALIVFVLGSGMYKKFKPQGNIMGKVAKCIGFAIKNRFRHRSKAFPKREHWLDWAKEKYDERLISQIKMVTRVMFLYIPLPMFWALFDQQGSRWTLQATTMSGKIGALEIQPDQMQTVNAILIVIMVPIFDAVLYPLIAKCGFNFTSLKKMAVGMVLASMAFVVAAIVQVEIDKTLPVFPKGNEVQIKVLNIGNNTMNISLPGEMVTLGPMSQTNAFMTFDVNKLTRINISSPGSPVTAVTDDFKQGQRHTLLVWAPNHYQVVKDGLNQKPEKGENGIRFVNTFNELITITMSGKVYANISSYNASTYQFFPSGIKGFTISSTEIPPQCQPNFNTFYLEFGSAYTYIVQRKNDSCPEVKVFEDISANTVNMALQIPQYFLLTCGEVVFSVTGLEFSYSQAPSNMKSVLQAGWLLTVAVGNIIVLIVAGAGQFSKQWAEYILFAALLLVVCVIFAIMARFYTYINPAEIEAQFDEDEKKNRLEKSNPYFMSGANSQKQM
TEST_METHOD_NOTES: Electrogenic transport in Xenopus oocytes expressing hPEPT1
Type: cell-based
RUN_CONDITIONS: hPEPT1-expressing oocytes; test compound 1 mM; relative to Gly-Sar
From the text: RNA preparation: Rat and human PEPT1 and PEPT2 transporter cDNAs were subcloned into a modified pGEM plasmid that contains 5′ and 3′ untranslated sequences from the Xenopus β-actin gene. These sequences increase RNA stability and protein expression. Plasmid cDNA was linearized and used as template for in vitro transcription (Epicentre Technologies transcription kit, 4:1 methylated:non-methylated GTP). Xenopus oocyte isolation. […]
Square brackets hold non-standard residues; d marks the D form. Peptide text beside a SMILES is read from it. * marks the point of attachment. Bn = c1ccc(C*)cc1
PROPERTY_LABEL: % Max. (Gly-Sar) (%)
Just the number please, in %, no unit attached.

Field % Max. (Gly-Sar) (hPEPT1 (Homo sapiens, UniProt P46059)), entry N[C@@H](CC(=O)O)C(=O)N[C@H](COCc1ccccc1)C(=O)O [(37), H-Asp-D-Ser(Bzl)-OH] (H-Asp-[dS](Bn)-OH) : 1

Field % Max. (Gly-Sar) (hPEPT1 (Homo sapiens, UniProt P46059)), entry N[C@@H](CCC(=O)O)C(=O)N[C@H](CSCc1ccccc1)C(=O)O [(34), H-Glu-D-Cys(Bzl)-OH] (H-Glu-[dC](Bn)-OH) : 1

Field % Max. (Gly-Sar) (hPEPT1 (Homo sapiens, UniProt P46059)), entry N[C@@H](CCC(=O)O)C(=O)N[C@@H](COCc1ccccc1)C(=O)O [(28), H-Glu-Ser(Bzl)-OH] (H-Glu-Ser(Bn)-OH) : 58

Field % Max. (Gly-Sar) (hPEPT1 (Homo sapiens, UniProt P46059)), entry N[C@@H](CCC(=O)O)C(=O)N[C@@H](CSCc1ccccc1)C(=O)O [(27), H-Glu-Cys(Bzl)-OH] (H-Glu-Cys(Bn)-OH) : 41

Field % Max. (Gly-Sar) (hPEPT1 (Homo sapiens, UniProt P46059)), entry N[C@@H](CC(=O)O)C(=O)N[C@@H](CSCc1ccccc1)C(=O)O [(30), H-Asp-Cys(Bzl)-OH] (H-Asp-Cys(Bn)-OH) : 55

Field % Max. (Gly-Sar) (hPEPT1 (Homo sapiens, UniProt P46059)), entry N[C@@H](CC(=O)O)C(=O)N[C@H](CSCc1ccccc1)C(=O)O [(36), H-Asp-D-Cys(Bzl)-OH] (H-Asp-[dC](Bn)-OH) : 2

Field % Max. (Gly-Sar) (hPEPT1 (Homo sapiens, UniProt P46059)), entry N[C@@H](CCC(=O)O)C(=O)N[C@H](COCc1ccccc1)C(=O)O [(35), H-Glu-D-Ser(Bzl)-OH] (H-Glu-[dS](Bn)-OH) : 1

----------
TARGET_DESC: LBAT (Homo sapiens, UniProt Q14973)
TEST_METHOD_NOTES: Electrogenic transport in Xenopus oocytes expressing LBAT
Sequence (Q14973 whole entry): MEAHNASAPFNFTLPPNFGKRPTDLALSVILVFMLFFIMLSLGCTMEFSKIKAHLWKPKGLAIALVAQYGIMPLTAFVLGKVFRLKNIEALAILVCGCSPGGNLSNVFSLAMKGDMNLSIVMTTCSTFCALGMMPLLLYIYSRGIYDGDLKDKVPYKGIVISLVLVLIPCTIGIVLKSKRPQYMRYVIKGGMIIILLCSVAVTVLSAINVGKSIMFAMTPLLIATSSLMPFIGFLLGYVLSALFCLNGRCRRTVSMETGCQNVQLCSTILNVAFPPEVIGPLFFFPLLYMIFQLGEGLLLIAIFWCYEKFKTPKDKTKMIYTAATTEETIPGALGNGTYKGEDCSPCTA
PROPERTY_LABEL: EC50 (µM)
Just the number please, in µM, no unit attached.

The compound identified as CC(CCC(=O)NCC1(CC(=O)O)CCCCC1)C1CCC2C3C(O)CC4CC(O)CCC4(C)C3CC(O)C12C (stereo not shown) registered its EC50 at 19

----------
TARGET_DESC: UniProtKB Q14973
TEST_METHOD_NOTES: Inhibition of radiolabeled taurocholate uptake in LBAT-transfected CHO cells
RUN_CONDITIONS: radiolabeled competition assay in transporter-expressing CHO cells
PROPERTY_LABEL: IC50 (µM)
Just the number please, in µM, no unit attached.

The compound identified as C[C@H](CCC(=O)N[C@@H](Cc1ccc2oc(=O)oc2c1)C(=O)O)[C@H]1CC[C@H]2[C@@H]3[C@H](O)C[C@@H]4C[C@H](O)CC[C@]4(C)[C@H]3C[C@H](O)[C@]12C [(23), Cholyl-Dopa-(3,4-carbonate)] registered its IC50 at 1.8

The compound identified as CC(CCC(=O)NC(Cc1ccc(O)c(O)c1)C(=O)O)C1CCC2C3C(O)CC4CC(O)CCC4(C)C3CC(O)C12C (stereo not shown) registered its IC50 at 5

The compound identified as CC(CCC(=O)NC(Cc1ccccc1)C(=O)NCC1(CC(=O)O)CCCCC1)C1CCC2C3C(O)CC4CC(O)CCC4(C)C3CC(O)C12C (stereo not shown) registered its IC50 at 0.5

The compound identified as CC(CCC(=O)NCC1(CC(=O)O)CCCCC1)C1CCC2C3C(O)CC4CC(O)CCC4(C)C3CC(O)C12C (stereo not shown) registered its IC50 at 8

----------
TARGET_DESC: IBAT (Homo sapiens, UniProt Q12908)
TEST_METHOD_NOTES: Electrogenic transport in Xenopus oocytes expressing IBAT
Assay type: cell-based
RUN_CONDITIONS: relative to glycodeoxycholate
PROPERTY_LABEL: % Max. (GDC) (%)
Just the number please, in %, no unit attached.

The compound identified as CC(CCC(=O)NC(Cc1ccccc1)C(=O)NCC1(CC(=O)O)CCCCC1)C1CCC2C3C(O)CC4CC(O)CCC4(C)C3CC(O)C12C (centres unmarked) registered its % Max. (GDC) at 28

The compound identified as CC(CCC(=O)NC(Cc1ccc(O)c(O)c1)C(=O)O)C1CCC2C3C(O)CC4CC(O)CCC4(C)C3CC(O)C12C (centres unmarked) registered its % Max. (GDC) at 0

The compound identified as CC(CCC(=O)NCC(=O)NCC1(CC(=O)O)CCCCC1)C1CCC2C3C(O)CC4CC(O)CCC4(C)C3CC(O)C12C (centres unmarked) registered its % Max. (GDC) at 67

The compound identified as CC(CCC(=O)NCC1(CC(=O)O)CCCCC1)C1CCC2C3C(O)CC4CC(O)CCC4(C)C3CC(O)C12C (centres unmarked) registered its % Max. (GDC) at 67

The compound identified as C[C@H](CCC(=O)N[C@@H](Cc1ccc2oc(=O)oc2c1)C(=O)O)[C@H]1CC[C@H]2[C@@H]3[C@H](O)C[C@@H]4C[C@H](O)CC[C@]4(C)[C@H]3C[C@H](O)[C@]12C [(23), Cholyl-Dopa-(3,4-carbonate)] registered its % Max. (GDC) at 25
